The reader will find reported logD values listed item by item below.
# studyConditions: pH 10.5
# print the numeric value only

>>> readoutvalue("CC(C)=CCCC1=NN(C=O)[C@@](C)(CCC=C(C)C)C1")
5.02
>>> readoutvalue("C[C@H](NC(=O)CSc1ncnc2c1cnn2-c1ccccc1)c1ccccc1")
4.73

Challenge: Could you tell me which logD is on file for COc1ccc([C@H]2C(C#N)=C(N)N(c3ccccc3C(F)(F)F)C3=C2C(=O)CCC3)cc1CSc1ccccn1 ?
Response given: 5.45

Challenge: Could you tell me which logD is on file for CN1C(=O)N(C)C2(c3ccccc3)Nn3c(s/c(=C\c4ccc(Br)cc4)c3=O)=NC12c1ccccc1 (stereo unspecified) ?
Response given: 5.72

Challenge: Could you tell me which logD is on file for CCOc1cc(/C=N/n2cnc3sc(C)c(C)c3c2=O)cc(Br)c1OCC(N)=O ?
Response given: 4.98

Challenge: Could you tell me which logD is on file for CN(c1ccccc1)S(=O)(=O)c1ccc(C(=O)N2CCN(c3ccccc3Cl)CC2)cc1 ?
Response given: 5.31

Challenge: Could you tell me which logD is on file for N#CC1=C(N)OC2=NN=C(c3cccs3)[C@@H]2[C@@H]1C1CCCCC1 ?
Response given: 4.64
